- System: MDA-MB-436
- test.name: Antiproliferative activity against human MDA-MB-436 cells assessed as inhibition of cell proliferation incubated for 3 days by CellTiter-Glo Luminescent Cell Viability Assay
- Format: functional, cell-based
- condition.description: MDA-MB-436, 72 h
pIC50: −log10 of the molar value.
property: pIC50

smiles.representation	property	reported.measurement
Cc1nc(Nc2n[nH]c3c2CN(C(=O)N[C@H](CN(C)C)c2ccccc2)C3(C)C)c2sccc2n1	pIC50	9.10

----------
- measured.target: UniProt:P04629
- Sequence (P04629 whole entry): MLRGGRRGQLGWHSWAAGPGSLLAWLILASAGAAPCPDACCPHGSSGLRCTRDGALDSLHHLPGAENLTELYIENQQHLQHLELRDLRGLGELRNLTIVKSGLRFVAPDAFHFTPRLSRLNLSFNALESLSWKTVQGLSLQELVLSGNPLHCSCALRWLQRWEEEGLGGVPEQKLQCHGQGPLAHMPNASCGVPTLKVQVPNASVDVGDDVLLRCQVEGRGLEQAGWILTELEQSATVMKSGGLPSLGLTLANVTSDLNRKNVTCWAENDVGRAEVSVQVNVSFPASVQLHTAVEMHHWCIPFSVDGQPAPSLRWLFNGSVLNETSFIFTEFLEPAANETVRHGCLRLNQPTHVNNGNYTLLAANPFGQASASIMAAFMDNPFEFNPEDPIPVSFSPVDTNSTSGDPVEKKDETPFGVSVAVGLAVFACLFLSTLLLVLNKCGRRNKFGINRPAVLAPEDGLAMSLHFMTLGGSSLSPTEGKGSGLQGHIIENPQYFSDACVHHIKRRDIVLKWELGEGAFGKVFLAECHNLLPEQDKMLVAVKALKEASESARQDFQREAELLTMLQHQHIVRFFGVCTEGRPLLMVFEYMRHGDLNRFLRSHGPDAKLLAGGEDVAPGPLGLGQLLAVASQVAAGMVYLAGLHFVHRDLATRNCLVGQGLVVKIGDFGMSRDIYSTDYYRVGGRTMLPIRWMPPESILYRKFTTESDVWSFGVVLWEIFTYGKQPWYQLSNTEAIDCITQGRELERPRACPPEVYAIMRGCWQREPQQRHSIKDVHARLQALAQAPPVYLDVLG
- test.name: Inhibition of human TRKa in presence of ATP by cellular assay
pIC50: −log10 of the molar value.

compound	pIC50
Cc1nc(Nc2n[nH]c3c2CN(C(=O)N[C@H](CN(C)C)c2ccccc2)C3(C)C)c2sccc2n1 [PF-03758309]	5.62
